In this section, each of the compounds is paired with its reported fluorescence lifetime.
Test: solvent given as SMILES
Details: in c1cc(-c2cccc(-n3c4ccccc4c4ccccc43)c2)cc(-n2c3ccccc3c3ccccc32)c1
Answer format: numeric, ns implied, no suffix.

Return fluorescence lifetime for the following compound: `CC(C)(C)c1ccc2c(c1)c1cc(C(C)(C)C)ccc1n2-c1cc(C(=O)c2ccccn2)cc(-n2c3ccc(C(C)(C)C)cc3c3cc(C(C)(C)C)ccc32)c1`
5.3

* * *

Experiment: solvent given as SMILES
Conditions: in ClC(Cl)(Cl)Cl
Mark criterion met only for fluorescence lifetime values smaller than 1 ns; exact matches and larger values are criterion not met.

Would you please look over these solved cases?
smiles=COc1ccc(N(c2ccc(OC)cc2)c2ccc(-c3ccc4c(c3)C(=O)c3ccccc3C4=O)cc2)cc1 assigned_class="criterion not met"
smiles=CN(C)c1ccc(/C=C/C=C2\CC/C(=C\C=C\c3ccc(N(C)C)cc3)C2=O)cc1 assigned_class="criterion met"
smiles=O=Cc1ccc(N(c2ccc(C=O)cc2)c2ccc(-c3ccc4c(c3)C(=O)c3ccccc3C4=O)cc2)cc1 assigned_class="criterion not met"
smiles=Cc1ccc(-c2cc(-c3ccccc3)c(C#N)c(=S)[nH]2)cc1 assigned_class="criterion not met"

Here's the next entry for you.
Is 1 ns strictly greater than the compound's reported fluorescence lifetime? compound: `CN(C)c1ccc(/C=C2\CC/C(=C\c3ccc(C#N)cc3)C2=O)cc1`
criterion met
